Target: Recombinant human BRD4 containing dual bromodomains (BRD4-BD12 (1-477)) (Homo sapiens, UniProt O60885)
Construct: Recombinant human BRD4 containing dual bromodomains (BRD4-BD12 (1-477))
Assay: BRD4 Alphascreen binding assay
Procedure: BRD4 Alphascreen Binding Assay Binding of compounds of Formula (I) with BRD4 was assessed using Alphascreen binding assay. The inhibition of the interaction between BRD4 and its acetylated target protein was measured quantitatively using recombinant BRD4 protein, an acetylated Histone 4 peptide, and AlphaScreen™ technology. […] The close proximity allows the singlet oxygen produced by laser excitation of the donor beads to reach the acceptor beads and generate a luminescence signal. […]
pIC50: −log10 of the molar value.
Quick reference for pIC50 among some compounds

[
  {
    "Compound": "Cc1noc(C)c1-c1cnc2c(c1)c(-c1cccc(CC(=O)O)c1)cn2C(c1ccccn1)C1CCCC1 (stereo not shown) [P-0018]",
    "pIC50": "5.10 to 6.00"
  },
  {
    "Compound": "Cc1noc(C)c1-c1cnc2c(c1)c(-c1ccnc(C(=O)O)c1)cn2Cc1ccccc1 [P-0042]",
    "pIC50": "6.00 to 10.00"
  },
  {
    "Compound": "Cc1noc(C)c1-c1cnc2c(c1)c(-c1cccc(C(=O)O)c1)cn2Cc1cccc(Cl)c1 [P-0061]",
    "pIC50": "3.00 to 5.10"
  },
  {
    "Compound": "Cc1noc(C)c1-c1cnc2c(c1)c(-c1ccc(C(=O)O)cc1OC(F)(F)F)cn2-c1ncccc1Cl [P-0183]",
    "pIC50": "3.00 to 5.10"
  },
  {
    "Compound": "Cc1noc(C)c1-c1cnc2c(c1)c(-c1ccc(C(=O)O)cc1OC(F)(F)F)cn2C1(CC#N)CCC1 [P-0335]",
    "pIC50": "3.00 to 5.10"
  },
  {
    "Compound": "Cc1noc(C)c1-c1cnc2c(c1)c(-c1ccc(C(=O)O)cc1OCC1CC1)cn2[C@@H](C)c1ccccn1 [P-0138]",
    "pIC50": "3.00 to 5.10"
  },
  {
    "Compound": "Cc1noc(C)c1-c1cnc2c(c1)c(-c1ccc(C(=O)O)cc1OC(F)(F)F)cn2-c1ccccc1Cl [P-0307]",
    "pIC50": "5.10 to 6.00"
  },
  {
    "Compound": "Cc1noc(C)c1-c1cnc2c(c1)c(-c1ccc(C(=O)O)cc1OC(F)(F)F)cn2-c1cnccc1Cl [P-0177]",
    "pIC50": "3.00 to 5.10"
  },
  {
    "Compound": "COc1cc(C(=O)O)cc(OC)c1-n1cc(CC2CCC2)c2ncc(-c3c(C)noc3C)cc21 [P-0067]",
    "pIC50": "5.10 to 6.00"
  },
  {
    "Compound": "Cc1noc(C)c1-c1cnc2c(c1)c(-c1ccc(C(=O)O)cc1OC1CCC1)cn2[C@H]1CCOC1 [P-0350]",
    "pIC50": "3.00 to 5.10"
  }
]
